Reference for the values: patent US20220306630A1

Target Under Test: RORgT (Homo sapiens)
Construct: Gal4 (fusion partner); expressed in transfected cells; host or cells: engineered Jurkat cells (Jurkat pEx/Gal/hRORγ CLBD/HYG pG5luc/blast)
Sequence (P51449 267-516): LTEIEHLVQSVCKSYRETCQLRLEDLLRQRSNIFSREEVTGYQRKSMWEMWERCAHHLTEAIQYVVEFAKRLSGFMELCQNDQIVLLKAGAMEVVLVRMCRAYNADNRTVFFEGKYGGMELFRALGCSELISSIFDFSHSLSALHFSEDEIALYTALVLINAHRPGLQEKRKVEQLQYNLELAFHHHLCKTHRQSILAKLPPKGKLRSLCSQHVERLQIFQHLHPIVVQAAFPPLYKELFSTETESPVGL
Experiment Summary: RORgT Gal4 Luciferase Reporter Gene Assay
Type: cell-based
Condition Notes: engineered Jurkat cells overexpressing RORgT (LBD or full length) with Gal4 Luc reporter; 18 hours at 37° C.; 40 μM to 0.67 nM; read-out: RORg_GAL4 EC50
In plain terms, low EC50, meaning strictly below 100 nM, gives yes, and everything else gives no.

Molecule	Group Label
COc1ncc(Oc2c(Cl)ccc(CNC(=O)C3CCN(S(C)(=O)=O)CC3)c2Cl)cc1C(C)C [Example 144]	yes
COc1ccc(Oc2c(Cl)ccc(CNC(=O)CN3CCNCC3)c2Cl)cc1C(C)C [Example 89]	no
C=C(C)c1cc(Oc2c(Cl)ccc(C(=O)NCC3CCN(S(C)(=O)=O)CC3)c2Cl)cnc1OC [Example 71]	yes
COc1ccc(Oc2c(Cl)ccc(CNC(=O)C3CN(S(C)(=O)=O)C3)c2Cl)cc1C(C)C [Example 88]	yes
COc1ccc(Oc2c(Cl)ccc(C(=O)NCc3ccc(N(C)C)cc3)c2Cl)cc1C(C)C [Example 195]	no
COc1ccc(Oc2c(Cl)cc(NC(=O)C3CCCCC3)cc2Cl)cc1C(C)C [Example 287]	no
COc1ccc(Oc2c(Cl)cc(NC(=O)c3c[nH]c4ncncc34)cc2Cl)cc1C(C)C [Example 347]	no
CC1(c2cc(F)cc(Oc3c(Cl)cc(NC(=O)CC4CCN(S(C)(=O)=O)CC4)cc3Cl)c2)CC1 [Example 51]	yes
COc1ccc(Oc2c(Cl)cc(N3CC(CNS(N)(=O)=O)OC3=O)cc2Cl)cc1C(C)C (stereo not shown) [Example 12]	no
COc1ccc(Oc2c(Cl)ccc(C(=O)N3CCN(c4ccccc4)CC3)c2Cl)cc1C(C)C [Example 214]	no
COc1ccc(Oc2c(Cl)cc(NC(=O)Cc3cccnc3)cc2Cl)cc1C1CC1 [Example 37]	no
COc1ccc(Oc2c(Cl)ccc(C(=O)N3CCc4ccccc4C3)c2Cl)cc1C(C)C [Example 179]	no
COc1ncc(Oc2c(Cl)ccc(NC(=O)Cc3ccc(S(C)(=O)=O)cc3)c2Cl)cc1C(C)C [Example 23]	yes
CCCCNC(=O)c1ccc(Cl)c(Oc2ccc(OC)c(C(C)C)c2)c1Cl [Example 209]	no
CCS(=O)(=O)NC1CN(CC(=O)Nc2cc(Cl)c(Oc3ccc(OC)c(C(C)C)c3)c(Cl)c2)C1 [Example 162]	no
COc1ncc(Oc2c(Cl)ccc(C(=O)NCc3ccc(S(N)(=O)=O)cc3)c2Cl)cc1C(C)(C)F [Example 154]	yes

* * *

Target Under Test: RORgT (Homo sapiens)
Construct: Gal4 (fusion partner); expressed in transfected cells; host or cells: engineered Jurkat cells (Jurkat pEx/Gal/hRORγ CLBD/HYG pG5luc/blast)
Experiment Summary: RORgT Gal4 Luciferase Reporter Gene Assay
Type: cell-based
Condition Notes: engineered Jurkat cells overexpressing RORgT (LBD or full length) with Gal4 Luc reporter; 18 hours at 37° C.; 40 μM to 0.67 nM; read-out: RORg_GAL4 EC50
pEC50: −log10 of the molar value.

Smiles Entry	pEC50
COc1ccc(Oc2c(Cl)ccc(C(=O)Nc3ccccc3CC#N)c2Cl)cc1C(C)C	7.43
COc1ccc(Oc2c(Cl)cc(NC(=O)OCCn3ccnc3)cc2Cl)cc1C(C)C	5.89
CC(C)(F)c1cc(F)cc(Oc2c(Cl)cc(NC(=O)Cc3cccc(S(C)(=O)=O)c3)cc2Cl)c1	7.40
COc1ccc(Oc2c(Cl)cc(NC(=O)CN3CCN(S(N)(=O)=O)CC3)cc2Cl)cc1C(C)C	6.98
